Each item that follows carries a reported pIC50.
Molecular target: T1, soluble human B7-H7-Fc fusion protein (extracellular region of human B7-H7, aa 23-344, and a human Fc … (human, UniProt Q9UM44 23-344))
T1 construct: also called hB7-H7-Fc; soluble B7-H7
T1 sequence: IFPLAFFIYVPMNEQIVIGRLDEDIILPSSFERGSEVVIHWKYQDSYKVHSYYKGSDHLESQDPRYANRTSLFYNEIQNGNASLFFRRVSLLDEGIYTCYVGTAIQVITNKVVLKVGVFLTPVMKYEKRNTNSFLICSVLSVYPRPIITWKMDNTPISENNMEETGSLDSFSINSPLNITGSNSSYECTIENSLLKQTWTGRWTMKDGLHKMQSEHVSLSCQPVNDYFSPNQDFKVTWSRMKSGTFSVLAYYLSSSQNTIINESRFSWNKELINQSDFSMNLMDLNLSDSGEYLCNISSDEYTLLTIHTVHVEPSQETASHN
Experiment: FACS competition: antibody titrated against soluble hB7-H7-Fc binding to HEK-293 cells expressing human CD28H
# log scale: pIC50 equals minus log10 of the concentration in mol/L

**Query** // pIC50 lookup, key: anti-B7-H7 antibody 28F5 (antibody, V domains shown, Mouse hybridoma antibody) VH: QVQLKESGPGLVAPSQSLSITCTVSGFSLTGYGVNWVRQPPGKGLEWLGVIWGDGSTDYNSVLKSRLSISKDNSKSQVFLKMNSLQTDDTARYYCAREATEYLYWYFDVWGAGTTVTVSS VL: DIVLTQSPASLAVSLGQRATISCRASESVEYYGSSLMQWYQQKPGQPPKLLIFAASNVESGVPPRFSGSGSGTDFNLNIHPVDEDDIAMYFCQQGRRVPWTFGGGTKLEIK
**Result** 8.57

**Query** For anti-B7-H7 antibody 16D5 (antibody, V domains shown, Mouse hybridoma antibody) VH: QVQLQQSAAELARPGASVKMSCKASGYTFTTYTMHWVKQRPGQGLEWIGYINPSRGYSDYSQKFQGKSTLTTDKSSNTAYIQLTSLTSEDSAVYFCARGGYDFDYWGQGTTLTVSS VL: DIVMTQSHKFMSTSVGDRVSITCKASQDVGTAVAWYQQKPGQSPKLLLYWASTRHTGVPDRFTGSGSGTDYTLTISSVQAEDLALYHCQQHFITPYTFGGGTKLEIK , what is its reported pIC50?
**Result** 8.70

**Query** For the binder anti-B7-H7 antibody 2F10 (antibody, V domains shown, Mouse hybridoma antibody) VH: EIQLQQTGPELVKPGASLRISCKASGYSFTDYIIVWVKQNQGKNLDWIEKINPYYGTTTYNLRFEDKATLTVNKSSTTAYMQLNSLTSEDSAVYYCARWDYVSTLFAMDYWGQGTSITVSS VL: DIVMTQSHKVMSTSVGDRVSIICKASQDVGTAVAWYQQKPGQSPKLLIYWASTRHTGVPDRFTGSGSGTDFILTITNVQSENLANYFCQQYKRYYTFGGGTKLEIK , what pIC50 is on record?
**Result** 8.52

**Query** Sample anti-B7-H7 antibody 5B10 (antibody, V domains shown, Mouse hybridoma antibody) VH: EVQLQQSGPELEKPGASVKISCKASGYSFTGYNMNWVKQSNGKSLEWIGNIDPYSGGSTYNQKFKGKATLTVDKSSSTASLQLKSLTSEDSSVYYCARSFYDAPYLTYWGQGTLVTVSA VL: DIQMTQSPTSLSASVGETVTITCRASENIFIYLAWYQQKQGKSPQLLVFNAKTLAEGVPSRFSGSGSGTQFSLKINSLRPEDFGTYYCQHHYGTPPTFGGGTKLEV — what was its pIC50?
**Result** 8.47

**Query** I am curious: what pIC50 value has been reported for anti-B7-H7 antibody 5C9 (antibody, V domains shown, Mouse hybridoma antibody) VH: QVQLQQSGAELAKPGASVKMSCKASGYTFTSFWIHWIKQRPGQGLEWIGYIIPNTDYTEYNQKFKDKATFTADKSSSTAYMQLSSLTSEDSAVFYCARGLRGAYYFDYWGQGTTLTVSS VL: DIVLTQSPASLAVSLGLRATISCRSSQSVSTSTNGYMHWYQQKPGQPPKLLIMYASNLESGVPARFSGSGSGTDFTLNIHPVDEEDTATYYCQHSWVLPYTFGGGTKLEIK ?
**Result** 8.47

**Query** Name the recorded pIC50 for anti-B7-H7 antibody 2D7 (antibody, V domains shown, Parental mouse hybridoma antibody raised against human B7-H7-Fc) VH: EVQLQQSGPELVKPGASVKISCKTSGYTFTEYTMHWVKQSHGKSLEWIGGINPNNYGAPYNQKFKGKATLTVDKSSNTAYMELRSLTSEDSAIYYCASGGYYFDYWGQGTTLTVSS VL: DIVMTQSHKFMSTSFGDRVSITCKASQDVGTAVAWYQQKLGQSPKLLISWAFTRHTGVPDRFTGSGSGTDYTLTISSLQAEDLALYYCQQHYDTPFTFGSGTKLEIK .
**Result** 8.68

**Query** I would be grateful if you could share the reported pIC50 for anti-B7-H7 antibody 1D3 (antibody, V domains shown, Mouse hybridoma antibody) VH: EVQLQQSGPELEKPGASVKISCKASGYSFTGYNMNWVKESNGRSLEWIGNIDPYSGGSTYNQKFKGKATMTVDKSSSTAYMQLKSLTSEDSAVYYCARSVYDAPWLAHWGQGTLVTVSA VL: DIQMTQSPASLSASVGETVTITCRASENIYIYLAWYQQKQGKSPQLLVYNAKTLAEGVPSRFSGSGSGTQFSLKINRLQPEDFGNYYCQHHYGTPPTFGGGTKLEIK .
**Result** 8.10

**Query** Tell me the measured pIC50 of anti-B7-H7 antibody 5F7 (antibody, V domains shown, Mouse hybridoma antibody) VH: QEQLQQPGTELVKPGASVKISCKASGYTFSSYSMHWVKLTPGQGLEWMGTIYPGNENTSYNQKFKGKATLTADKSSSTAYMQLSSLTSEDSAVYYCARGGYYFDYWGQGTTLTVSS VL: DIVMTQSHKFLSTSVGDRVSITCKASQDVSTAVAWYQQKPGQSPKLLIYWASTRHTGVSDRFTGSGSGTDFTLTISSVQAEDLALYYCQQHFDIPYWFGGGTKLEIK , please.
**Result** 8.74

**Query** # pIC50 lookup, item anti-B7-H7 antibody 3H6 (antibody, V domains shown, Mouse hybridoma antibody) VH: EVQLQQSGPELVKPGASVKISCKTSGYTFTEYTMHWVKQSHGKSLEWIGGINPNNGGAPYNQKFKGKATLTVDKSSSTAYMELRSLTSEDSAVYYCARGGYYFDYWGQGTTLTVSS VL: DIVMTQSHKFMSTSVGDRVSITCKASQDVSTAVAWYQQKSGQSPKLLIYWASTRHTGVPDRFTGSGSGTDYTLTISSVQAEDLALYYCQQHYDTPFTFGGGTKLEIK
**Result** 8.60
